Provenance of the data: patent US11957759B1

biological target: B-RAF V600E (Homo sapiens, UniProt P15056, V600E); construct: expressed in transfected cells; host or cells: T-Rex 293 cells (Invitrogen #R71007); experiment: Target protein degradation, assay C: T-Rex 293 cells, HA-BRAF_V600E, 384 well format; assay type: cell-based; conditions: T-REx-293, Assay C, T-Rex 293 HA-BRAF_V600E cells, 24 hours, Examples 83-269
Sequence (P15056 whole entry V600E): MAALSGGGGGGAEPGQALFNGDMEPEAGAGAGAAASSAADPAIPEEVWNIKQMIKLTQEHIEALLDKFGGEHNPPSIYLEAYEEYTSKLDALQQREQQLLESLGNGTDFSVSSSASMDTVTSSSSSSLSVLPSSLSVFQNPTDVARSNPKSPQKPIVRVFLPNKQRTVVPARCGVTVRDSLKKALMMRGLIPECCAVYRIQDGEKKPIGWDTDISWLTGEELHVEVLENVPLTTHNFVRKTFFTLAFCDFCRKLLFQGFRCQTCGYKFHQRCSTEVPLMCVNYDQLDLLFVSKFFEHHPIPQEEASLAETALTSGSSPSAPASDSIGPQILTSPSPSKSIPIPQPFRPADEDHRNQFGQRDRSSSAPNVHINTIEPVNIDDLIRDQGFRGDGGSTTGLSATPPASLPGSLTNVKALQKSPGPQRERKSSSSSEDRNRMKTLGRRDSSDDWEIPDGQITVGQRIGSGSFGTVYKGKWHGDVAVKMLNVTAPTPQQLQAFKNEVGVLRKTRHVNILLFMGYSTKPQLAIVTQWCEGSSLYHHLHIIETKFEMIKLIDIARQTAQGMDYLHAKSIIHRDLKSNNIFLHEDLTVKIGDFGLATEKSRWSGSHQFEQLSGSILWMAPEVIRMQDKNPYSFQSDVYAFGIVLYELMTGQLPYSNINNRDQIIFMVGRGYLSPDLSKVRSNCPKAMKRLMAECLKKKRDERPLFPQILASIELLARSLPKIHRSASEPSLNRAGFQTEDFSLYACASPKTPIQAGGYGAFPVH
Exercise: state measured Dmax for each of the compounds provided.

query: Given the entry N#Cc1c(NS(=O)(=O)N2CC[C@@H](F)C2)ccc(F)c1Oc1ccc2ncn(-c3cnc(N4CCC(CN5CC6(CCN(c7ccc8c(c7)CN(C7CCC(=O)NC7=O)C8=O)CC6)C5)CC4)nc3)c(=O)c2c1 (some centres unmarked) [Example 132] , report its measured Dmax.
result: 35 to 70%

query: Then what about the compound N#Cc1c(NS(=O)(=O)N2CC[C@@H](F)C2)ccc(F)c1Oc1ccc2ncn(-c3ccc(N4CCC5(CC4)CN(c4cccc6c4CN(C4CCC(=O)NC4=O)C6=O)C5)nc3)c(=O)c2c1 (some centres unmarked) [Example 165] ?
result: ≤ 35%

query: Another compound to check: N#Cc1c(NS(=O)(=O)N2CC[C@@H](F)C2)ccc(F)c1Oc1ccc2ncn(-c3ccc(N4CCN(CCCOc5ccc6c(c5)C(=O)N(C5CCC(=O)NC5=O)C6=O)CC4)nc3)c(=O)c2c1 (some centres unmarked) [Example 164]
result: 35 to 70%

query: What would you report for N#Cc1c(NS(=O)(=O)N2CC[C@@H](F)C2)ccc(F)c1Oc1ccc2ncn(-c3ccc(N4CCN(CCN5CCC(c6ccc7c(c6)CN(C6CCC(=O)NC6=O)C7=O)CC5)CC4)cc3)c(=O)c2c1 (some centres unmarked) [Example 176] ?
result: 35 to 70%

query: Same question for N#Cc1c(NS(=O)(=O)N2CC[C@@H](F)C2)ccc(F)c1Oc1ccc2ncn(-c3ccc(N4CCC(c5ccc6c(c5)CN(C5CCC(=O)NC5=O)C6=O)CC4)nc3)c(=O)c2c1 (some centres unmarked) [Example 136] please.
result: ≤ 35%

====

target: B-RAF G466V (Homo sapiens, UniProt P15056, G466V); construct: expressed in transfected cells; host or cells: T-Rex 293 cells (Invitrogen #R71007); experiment: Target protein degradation, assay B: T-Rex 293 cells, HA-B-RAF_G466V, 96 well format; type: cell-based; conditions: T-Rex 293 HA-B-RAF_G466V cells, 24 hours, Examples 1-82
Sequence (P15056 whole entry G466V): as the sequence (P15056 whole entry V600E) above, with G466V, E600V counted along it
Measured parameter: Dmax

query: Lab note: need Dmax with B-RAF G466V (Homo sapiens, UniProt P15056, G466V) for entry N#Cc1c(NS(=O)(=O)N2CC[C@@H](F)C2)ccc(F)c1Oc1ccc2ncn(-c3ccc(N4CCN(CC5CCN(c6ccc([C@H]7CCC(=O)NC7=O)cc6F)CC5)CC4)cc3)c(=O)c2c1 (single isomer, unassigned) , please look it up.
result: 35 to 70%

query: // next record "N#Cc1c(NS(=O)(=O)N2CC[C@@H](F)C2)ccc(F)c1Oc1ccc2ncn(-c3cnc(N4CCN(C(=O)CC5(O)CCN(c6ccc7c(c6)CN([C@H]6CCC(=O)NC6=O)C7=O)CC5)CC4)nc3)c(=O)c2c1"
result: 35 to 70%

====

molecular target: B-RAF G466V (Homo sapiens, UniProt P15056, G466V); construct: expressed in transfected cells; host or cells: T-Rex 293 cells (Invitrogen #R71007); assay: Target protein degradation, assay B: T-Rex 293 cells, HA-B-RAF_G466V, 96 well format; assay type: cell-based; settings: T-Rex 293 HA-B-RAF_G466V cells, 24 hours, Examples 1-82
Kindly supply the reported DC50 values for the records listed here.

query: Can you look up the measured DC50 of N#Cc1c(NS(=O)(=O)N2CC[C@@H](F)C2)ccc(F)c1Oc1ccc2ncn(-c3ccc(N4CCN(CC5CCN(c6cccc7c6ccn7C6CCC(=O)NC6=O)CC5)CC4)cc3)c(=O)c2c1 (some centres unmarked) for me?
result: 1 to 10 nM

query: Follow-up item: N#Cc1c(NS(=O)(=O)N2CC[C@@H](F)C2)ccc(F)c1Oc1ccc2ncn(-c3ccc(N4CCN(c5ccc6c(c5)CN(C5CCC(=O)NC5=O)C6=O)CC4)cc3)c(=O)c2c1 (some centres unmarked)
result: > 30 nM

query: What do you get for "N#Cc1c(NS(=O)(=O)N2CC[C@@H](F)C2)ccc(F)c1Oc1ccc2ncn(-c3ccc(N4CCN(CC5CN(c6ccc7c(c6)CN([C@H]6CCC(=O)NC6=O)C7=O)C5)CC4)cc3)c(=O)c2c1" ?
result: 1 to 10 nM

query: Could you do the same for N#Cc1c(NS(=O)(=O)N2CC[C@@H](F)C2)ccc(F)c1Oc1ccc2ncn(-c3ccc(N4CCN(CC5CCN(c6ccc7c(c6)CN(C6CCC(=O)NC6=O)C7=O)CC5)CC4)cc3)c(=O)c2c1 (some centres unmarked) , please?
result: ≤ 1 nM

query: Let us now turn to N#Cc1c(NS(=O)(=O)N2CC[C@@H](F)C2)ccc(F)c1Oc1ccc2ncn(-c3ccc(N4CCC(c5ccc6c(c5)C(=O)N(C5CCC(=O)NC5=O)C6)CC4)cc3)c(=O)c2c1 (some centres unmarked)
result: > 30 nM

====

Please go through the items and note down their DC50.
target: B-RAF G466V (Homo sapiens, UniProt P15056, G466V); construct: expressed in transfected cells; host or cells: T-Rex 293 cells (Invitrogen #R71007); test: Target protein degradation, assay D: T-Rex 293 cells, HA-BRAF_G466V, 384 well format; type: cell-based; conditions: Assay D, T-Rex 293 HA-BRAF_G466V cells, 24 hours, Examples 83-269

query: So what does the record say about DC50 for N#Cc1c(NS(=O)(=O)N2CC[C@@H](F)C2)ccc(F)c1Oc1ccc2ncn(-c3ccc(N4CCC(CN5CC6(C5)CN(c5cccc7c5C(=O)N(C5CCC(=O)NC5=O)C7=O)C6)CC4)nc3)c(=O)c2c1 (stereo partly drawn) ?
result: > 30 nM

query: How about this compound: N#Cc1c(NS(=O)(=O)N2CC[C@@H](F)C2)ccc(F)c1Oc1ccc2ncn(-c3ccc(NC4CCN(c5ccc6c(c5)C(=O)N(C5CCC(=O)NC5=O)C6=O)CC4)nc3)c(=O)c2c1 (stereo partly drawn)
result: > 30 nM

query: Do the same for N#Cc1c(NS(=O)(=O)N2CC[C@@H](F)C2)ccc(F)c1Oc1ccc2ncn(-c3cnc(C4(N5CCN(CC6CN(c7ccc(C8CCC(=O)NC8=O)cc7F)C6)CC5)CC4)nc3)c(=O)c2c1 (stereo partly drawn) please
result: 1 to 10 nM

====

target: B-RAF G466V (Homo sapiens, UniProt P15056, G466V); construct: expressed in transfected cells; host or cells: T-Rex 293 cells (Invitrogen #R71007); assay: Target protein degradation, assay D: T-Rex 293 cells, HA-BRAF_G466V, 384 well format; type: cell-based; details: Assay D, T-Rex 293 HA-BRAF_G466V cells, 24 hours, Examples 83-269
Measured parameter: DC50

query: Return reported DC50; argument: N#Cc1c(NS(=O)(=O)N2CC[C@@H](F)C2)ccc(F)c1Oc1ccc2ncn(-c3cnc(N4CCC(CN5CCC6(CC5)CN(c5cccc7c5CN(C5CCC(=O)NC5=O)C7=O)C6)CC4)nc3)c(=O)c2c1 (stereo partly drawn)
result: 1 to 10 nM

query: How about N#Cc1c(NS(=O)(=O)N2CC[C@@H](F)C2)ccc(F)c1Oc1ccc2ncn(-c3ccc(N4CCC(CC5CCCN5c5ccc6c(c5)C(=O)N(C5CCC(=O)NC5=O)C6=O)CC4)nc3)c(=O)c2c1 (stereo partly drawn) ?
result: > 30 nM

query: Same question, N#Cc1c(NS(=O)(=O)N2CC[C@@H](F)C2)ccc(F)c1Oc1ccc2ncn(-c3ccc(N4CCC(CN5CC(c6ccc7c(c6)CN(C6CCC(=O)NC6=O)C7=O)C5)CC4)cc3)c(=O)c2c1 (stereo partly drawn) this time
result: 1 to 10 nM

====

Field: Dmax. Provide a value for each of the compounds that follow.
target: B-RAF V600E (Homo sapiens, UniProt P15056, V600E); construct: expressed in transfected cells; host or cells: T-Rex 293 cells (Invitrogen #R71007); assay: Target protein degradation, assay C: T-Rex 293 cells, HA-BRAF_V600E, 384 well format; assay type: cell-based; details: T-REx-293, Assay C, T-Rex 293 HA-BRAF_V600E cells, 24 hours, Examples 83-269

query: For the compound "N#Cc1c(NS(=O)(=O)N2CC[C@@H](F)C2)ccc(F)c1Oc1ccc2ncn(-c3ccc(N4CCC5(CC4)CC(OC4CCN(c6ccc7c(c6)CN([C@@H]6CCC(=O)NC6=O)C7=O)CC4)C5)cc3)c(=O)c2c1" , what Dmax is on record?
result: ≤ 35%

query: What about this compound? CCN(C)S(=O)(=O)Nc1ccc(F)c(Oc2ccc3ncn(-c4ccc(N5CCC(CN6CCC(c7ccc8c(c7)CN(C7CCC(=O)NC7=O)C8=O)CC6)CC5)cc4)c(=O)c3c2)c1C#N (centres unmarked)
result: 35 to 70%

query: Please do the same for "N#Cc1c(NS(=O)(=O)N2CC[C@@H](F)C2)ccc(F)c1Oc1ccc2ncn(-c3ccc(N4CCC(CN5CC(c6ccc7c(c6)CN([C@@H]6CCC(=O)NC6=O)C7=O)C5)CC4)cc3)c(=O)c2c1" as well.
result: 35 to 70%

query: Query "N#Cc1c(NS(=O)(=O)N2CC[C@@H](F)C2)ccc(F)c1Oc1ccc2ncn(-c3cccc(N4CCN(CC5CCN(c6ccc7c(c6)CN([C@H]6CCC(=O)NC6=O)C7=O)CC5)CC4)c3)c(=O)c2c1" next
result: ≥ 70%

query: What do you get for N#Cc1c(NS(=O)(=O)N2CC[C@@H](F)C2)ccc(F)c1Oc1ccc2ncn(-c3ccc(N4CCC(CN5CC6(C5)CN(c5ccc7c(c5)C(=O)N(C5CCC(=O)NC5=O)C7=O)C6)CC4)nc3)c(=O)c2c1 (some centres unmarked) ?
result: 35 to 70%
